Consider the following compounds; for each one, report its melting point.

melting point in this record for O=c1c(-c2ccc(O)cc2)coc2cc(O)ccc12 : 227 to 228 °C

melting point in this record for CCCCc1nc2ccc(O)cc2c(=O)n1Cc1ccc(-c2ccccc2-c2nnnn2COC)cc1 : 157 to 159 °C

melting point in this record for Cc1ccc([C@H]2O[C@@H]2C(N)=O)cc1 : 183 to 185 °C

melting point in this record for O=c1c(-c2cccc(C(F)(F)F)c2)c[nH]n1-c1cccc(Cl)c1 : 182 to 184 °C

melting point in this record for CCC1NC(=O)N(c2ccccc2)C(=O)N1OC(C)=O (stereo unspecified) : 128 to 130 °C

melting point in this record for O=[N+]([O-])c1cc(Cl)c(I)c(Cl)c1 : 147 to 150 °C

---

OBSERVATION_TYPE: melting point

melting point in this record for COC(=O)c1cc(OC(C)C)nn1Cc1ccc(Cl)cc1Cl : 89 to 90 °C

melting point in this record for CCN(CC)CCn1cc(C(=O)NCc2ccc(Cl)cc2)c(=O)c2cc(CCCO)sc21 : 111 to 114 °C

melting point in this record for O=C1COCCN1c1ccc(NC[C@H](O)CCl)cc1 : 138 to 139 °C

melting point in this record for CCCCc1oc2ccccc2c1/C=N/OCCCOc1ccc(C(=O)O)c(O)c1 : 140 to 142 °C

melting point in this record for O=C(NCCCCN1CCC(c2c[nH]c3ccccc23)CC1)c1sc(-c2ccc(C(F)(F)F)cc2)nc1CO : 235 °C

melting point in this record for Cc1cc2c(cc1F)NC(=O)C2 : 168 to 171 °C

melting point in this record for O=C(O)c1oc2cc(O)ccc2c(=O)c1C(=O)O : 255 to 257 °C

melting point in this record for CC(CO)NCc1ccc(-c2cc3ncnc(Nc4ccc5[nH]ccc5c4)c3s2)cc1 (stereo not given) : 160 to 175 °C

melting point in this record for COc1cc(OC)cc(C(=O)P2(=O)Oc3ccccc3-c3ccccc32)c1 (stereo not given) : 140 to 142 °C

melting point in this record for NC(=O)c1c(C(=O)O)cnn1-c1ccc(Cl)c(Cl)c1 : 249 to 250 °C

---

Consider the following compounds; for each one, report its melting point.

melting point in this record for CC(C)(C)c1cccc(C[C@@H](NC(=O)c2ccc(F)c3ccccc23)[C@@H](O)c2cccc(Cl)c2)c1 (racemic) : 76 to 78 °C

melting point in this record for Cc1ccc(C(=O)NC(NC(=S)Nc2cccnc2)c2ccccc2)cc1 (stereo not given) : 156 to 158 °C

melting point in this record for CCC(C)C(NC(=O)C(C)CS)C(=O)O (stereo not given) : 164 °C

melting point in this record for CNC(=O)Oc1c(OC)c(OC)c(OC(=O)NC)c2ccccc12 : 228 to 229 °C

melting point in this record for COC(=O)Nc1ccccc1C=Cc1ccccc1Cl : 135 to 137 °C

---

Consider the following molecules; for each one, report its melting point.

melting point in this record for CCCn1c(=O)c(-c2c(Cl)cccc2Cl)cc2cnc(N)nc21 : 196 to 197 °C

melting point in this record for COc1ccc(N2CCOCC2)c2sc(-c3nc4ccc(N(C)C)nc4[nH]3)nc12 : 120 to 130 °C

melting point in this record for NC(=O)c1ccc(N2CCN(Cc3cn4cc(Cl)ccc4n3)CC2)c(F)c1 : 253 to 255 °C

melting point in this record for O=C(NCCO)/C(=C/c1ccc(C2CC2)cc1)NC(=O)c1ccc(OCCc2ccc3c(c2)OCO3)cc1 : 113 to 115 °C

melting point in this record for O=C(c1ccccc1F)c1cc(Cl)ccc1C(=O)C(Br)CN1C(=O)c2ccccc2C1=O (stereo not given) : 125 to 128 °C

melting point in this record for CCCCCCC/C=C/C(=O)NCC(C)C : 42 to 45 °C

melting point in this record for CC(=O)c1cnc2onc(C)c2c1Cl : 63 °C

melting point in this record for O=C(O)c1cnc2c3cc(NC(=O)C4CCCCC4)ccc3ncn2c1=O : 311 to 314 °C

melting point in this record for Cc1occ2c1-c1ccccc1C(=C1CCN(C)CC1)c1ccccc1-2 : 80 to 86 °C

melting point in this record for O=C(NCCBr)C1=C(C(=O)Nc2cc(OC3CCCC3)c(Cl)cc2F)CCCC1 : 140 to 142 °C

---

Consider the following compounds; for each one, report its melting point.

melting point in this record for CCOc1ccc(C(C)=O)cc1C(=O)OC : 50 to 55 °C

melting point in this record for O=C1Cn2c(cc3ccccc32)C(=O)N1CCCCN1CCN(c2ncccn2)CC1 : 237 to 239 °C

melting point in this record for Cc1cc(C)cc(-c2[nH]c3ccc(C(=O)O)cc3c2CCN(CCCCc2ccc(NS(C)(=O)=O)cc2)C(=O)OCc2ccccc2)c1 : 212 to 213 °C

melting point in this record for CCN(c1ccc(C(=O)c2ccccc2)cc1N)C1CCCCC1 : 106 to 108 °C

melting point in this record for CC(=O)N1c2ccc(O)cc2Sc2cc([N+](=O)[O-])ccc21 : 202 to 205 °C

melting point in this record for Cc1[nH]c2ccc(F)cc2c1C(=O)Nc1ccc(N2CCC(O)CC2)c(C#N)c1 : 169 to 171 °C

melting point in this record for COC(=O)CCC(C#N)(CCC(=O)OC)c1cccc(Cl)c1 : 78.5 to 80 °C

melting point in this record for CC(C)N1C(=O)CO[C@@H]2c3cc(F)ccc3OCC[C@H]21 (relative stereo) : 127 to 143 °C

melting point in this record for O=C1CC(c2ccccc2)c2cc(C(=O)c3ccc(Cl)cc3)ccc2N1 (stereo unspecified) : 204 °C

melting point in this record for Cc1nc(-c2cccnc2)sc1-c1ccnc(Nc2ccc(N3CCSCC3)cc2)n1 : 191 to 193 °C

melting point in this record for COc1cc(OC)c2c(=O)[nH]c(-c3ccc(OCCNC(C)C)c(-c4ccc(S(C)(=O)=O)cc4C(F)(F)F)n3)nc2c1 : 199 to 201 °C

melting point in this record for C[C@@H](NC(=O)[C@@H](NCc1nccn1C)C(C)(C)C)C(C)(C)C : 131 to 132 °C

melting point in this record for COC(=O)[C@@H]1CSCN1S(=O)(=O)c1ccc(Cl)c(CBr)c1Cl : 48 to 50 °C

melting point in this record for CCn1ncc2c3noc(-c4ccccc4C)c3cnc21 : 168 to 170 °C

melting point in this record for COc1cc(OCc2ccccn2)ccc1/C=C/C(=O)CC(=O)/C=C/c1ccc2ccn(C)c2c1 : 191 to 192 °C

melting point in this record for CCOC(=O)c1cnc2c(OC)cccc2c1Nc1ccccc1 : 120 to 121 °C

melting point in this record for O=C(CC(=O)c1ccccc1C(=O)O)c1ccc(Cl)cc1 : 148 to 150 °C

melting point in this record for Brc1ccc(C2NCCS2)cc1 (stereo unspecified) : 105 to 107 °C

melting point in this record for COC(=O)NCCCn1c(-c2ccc(OC)cc2)csc1=Nc1ccccc1 : 106 to 108 °C

melting point in this record for O=C(OCc1ccc(C(F)(F)F)cc1)N1CCN(CC2Cn3cc([N+](=O)[O-])nc3O2)CC1 (stereo unspecified) : 120 to 122 °C

melting point in this record for CCCCCc1nc2c(N)nc3ccccc3c2n1CCCCNS(C)(=O)=O : 137 to 138 °C

melting point in this record for CCn1cc(CN(C(=O)Nc2c(C)cccc2C)c2ccc(C(C)C)cc2)cn1 : 108 °C

melting point in this record for CCOC(=O)c1nc2cc(Br)c(Cl)cc2[nH]c1=O : 203 to 205 °C

melting point in this record for C#CC1(CO)C=CC(n2cc(C)c(=O)[nH]c2=O)O1 (stereo unspecified) : 207 to 209 °C

melting point in this record for CCOC(=O)Cn1c(Br)c(Br)c(C#N)c1Br : 140 to 143 °C

melting point in this record for CC(C)[C@H](NC1CCCCC1)C(=O)NCCCC(c1ccc(F)cc1)c1ccc(F)cc1 : 49 to 53 °C

melting point in this record for COc1cc(Nc2c(C#N)cnc3cc(-c4csc(C=O)c4)sc23)c(Cl)cc1Cl : 259 to 261 °C

melting point in this record for NC1CSC(c2cccs2)CNC1=O (stereo unspecified) : 157 °C

melting point in this record for CC(CNc1cccc(-c2ccnc3c(C(=O)c4cccs4)cnn23)c1)c1ccccc1 (stereo unspecified) : 108 to 110 °C

melting point in this record for COc1ccc2c(c1)nc(Cn1ccnc1)n2-c1ccccc1 : 104 to 106 °C

melting point in this record for COC(=O)COc1ccc(CC(C)NCC(O)c2ccc(O)c(CO)c2)cc1 (stereo unspecified) : 60 to 63 °C

melting point in this record for CC(C)(O)c1cc(Cn2cncn2)cc(C(C)(C)C#N)c1 : 152 to 154 °C

melting point in this record for CN(C)C(=O)NS(=O)(=O)C=Cc1ccccc1 : 160 to 162 °C

melting point in this record for O=C1CC=C(c2ccccc2Cl)c2cc(Cl)ccc2N1 : 171 °C

melting point in this record for CCCC(=O)Nc1ccc2nc(S(N)(=O)=O)sc2c1 : 246 to 247 °C

melting point in this record for CCc1oc2ccc([N+](=O)[O-])cc2c1C(=O)c1ccc(O)cc1 : 152 °C

melting point in this record for N[C@H](C1CCCCC1)C(O)(c1ccc2ccccc2c1)c1ccc2ccccc2c1 : 205 to 206 °C

melting point in this record for COC1OCC[C@@H]1NC(=O)[C@H](CC(C)C)NC(=O)[C@H](CC(C)C)NC(=O)OCc1ccccc1 (stereo partly specified) : 76 to 77 °C

melting point in this record for C=C(c1cn(-c2c(Cl)cc(C(F)(F)F)cc2Cl)nc1C#N)C(F)(F)C(F)(F)C(F)(F)F : 109 to 110 °C

melting point in this record for O=C(O)CCCCCNC(=O)OCc1ccccc1 : 54 to 55.5 °C

melting point in this record for OC(Cc1ccc(Cl)cc1)(Cn1cncn1)Cn1cncn1 : 116 to 118 °C

These entries and their values trace back to a melting point compilation (Tetko et al.; mined from patent text by program, amines drawn as free bases though some values may be those of a salt).
